Hello, the source for this data is paper PMC11506018, in case you need it.

target: PARP-1 (Homo sapiens, UniProt P09874); assay: chemiluminescence-based PARP-1 assay kit (recombinant enzyme); conditions: IC50 PARP-1 screening assay kit, recombinant PARP-1, 1 h RT, n = 2
Sequence (P09874 whole entry): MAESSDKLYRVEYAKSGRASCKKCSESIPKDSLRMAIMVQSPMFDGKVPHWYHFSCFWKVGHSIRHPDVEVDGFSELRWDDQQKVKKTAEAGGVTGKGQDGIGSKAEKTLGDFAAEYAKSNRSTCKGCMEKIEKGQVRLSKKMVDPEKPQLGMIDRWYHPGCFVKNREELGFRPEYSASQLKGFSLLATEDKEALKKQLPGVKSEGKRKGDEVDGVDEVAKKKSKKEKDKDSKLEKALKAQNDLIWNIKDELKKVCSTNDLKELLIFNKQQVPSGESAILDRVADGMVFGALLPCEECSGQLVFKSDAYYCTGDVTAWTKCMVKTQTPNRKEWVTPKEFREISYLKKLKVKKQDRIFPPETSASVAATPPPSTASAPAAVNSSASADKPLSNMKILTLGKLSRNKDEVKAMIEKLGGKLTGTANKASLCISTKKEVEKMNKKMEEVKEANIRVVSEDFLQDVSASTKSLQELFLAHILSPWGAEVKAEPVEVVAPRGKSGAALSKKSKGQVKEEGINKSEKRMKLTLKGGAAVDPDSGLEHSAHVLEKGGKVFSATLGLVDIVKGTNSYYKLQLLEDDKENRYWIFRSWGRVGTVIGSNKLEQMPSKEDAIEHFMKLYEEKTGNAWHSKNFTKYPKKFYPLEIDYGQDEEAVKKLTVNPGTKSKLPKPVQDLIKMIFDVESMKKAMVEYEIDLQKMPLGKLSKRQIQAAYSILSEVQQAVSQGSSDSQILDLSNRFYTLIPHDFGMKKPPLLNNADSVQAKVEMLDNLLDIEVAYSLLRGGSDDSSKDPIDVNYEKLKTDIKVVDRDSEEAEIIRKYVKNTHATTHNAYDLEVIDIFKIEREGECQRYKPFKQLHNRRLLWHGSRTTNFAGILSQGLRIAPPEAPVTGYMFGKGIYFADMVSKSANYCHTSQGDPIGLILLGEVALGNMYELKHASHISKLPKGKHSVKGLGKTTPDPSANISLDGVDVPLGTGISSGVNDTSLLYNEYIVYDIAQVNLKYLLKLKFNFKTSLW
pIC50: −log10 of the molar value.
Each entry below carries its reported pIC50.
Readout Kind: pIC50

1) CNC(=O)C1CC(=O)c2cccc3[nH]c(C)c1c23 (stereo not shown) ... 5.55
2) Cc1[nH]c2cccc3c2c1C(C(=O)N1CCOCC1)CC3=O (stereo not shown) ... 5.79
3) Cc1[nH]c2cccc3c2c1C(C(=O)NCc1ccco1)CC3=O (stereo not shown) ... 6.32
4) O=C(O)C1=NNC(=O)c2cccc3[nH]cc1c23 ... 7.38
